System: SF-295 CNS
Experiment: NCI-60 one-dose screen, 48 h
Conditions: 10 µM unless noted
Procedure: Cells are grown in 96 well plates and exposed to the test compound for 48 hours. Compounds are tested at a single concentration, which is 10^-5 M for most compounds. The reported endpoint is percent growth (GI% or GIPRCNT), where numbers from 0 - 100% represent growth inhibition, and numbers from -100% - 0 represent cell death. For example, a value of 40 represents 60% growth inhibition. A value of 0 means no net growth occurred over the course of the experiment. […]
This is part of a sample that, as a whole, favours compounds with a hit. Of some 83,000 tested, about 20% had one in any assay. Calls of active or inactive are those of the source. Rule for the calls: active = growth percent below 10; inactive = the rest.
Choose the fitting class; nothing outside active, inactive is accepted.

>  <compound>
COc1cccc2c1C(=O)c1c(O)c3c(c(O)c1C2=O)CC(O)(/C(C)=N/NC(=O)CCC(=O)N/N=C(\C)C1(O)Cc2c(O)c4c(c(O)c2C(OC2CC(N)C(O)C(C)O2)C1)C(=O)c1c(OC)cccc1C4=O)CC3OC1CC(N)C(O)C(C)O1 (stereo not drawn)

>  <system_under_test>
SF-295 CNS

>  <cat>
active

$$$$
>  <compound>
COc1ccc(/C=C(/C(=O)N2CCCC2)c2cc(OC)c(OC)c(OC)c2)cc1N

>  <system_under_test>
SF-295 CNS

>  <cat>
inactive

$$$$
>  <compound>
OC1(c2ccc(Cl)cc2Cl)c2ccccc2C2=NCCN21 (stereo not drawn)

>  <system_under_test>
SF-295 CNS

>  <cat>
inactive

$$$$
>  <compound>
C[CH2][Pb]([CH2]C)([CH2]C)[O]C(=O)c1ccc(N)cc1

>  <system_under_test>
SF-295 CNS

>  <cat>
inactive

$$$$
>  <compound>
CC[CH2][Pb]([CH2]CC)([CH2]CC)[O]C(=O)C(F)(F)F

>  <system_under_test>
SF-295 CNS

>  <cat>
active

$$$$

Query: recorded result category for COc1cc(/C=C\c2cc(OC)c(OC)c(OC)c2)cc(N/C=C\C(=O)c2ccc(OC(F)(F)F)cc2)c1OC in this test
active

Query: recorded result category for CC(=O)N(C)C1=Nc2ccc(Cl)cc2C(c2ccccc2)=[N+]([O-])C1 in this test
inactive

Query: recorded result category for Cc1ccc(C[As+](c2ccccc2)(c2ccccc2)c2ccccc2)cc1 in this test
active

###

Could you please report measured growth for the items listed next?
system: SK-OV-3 ovarian; assay: NCI-60 one-dose screen, 48 h (100 = growth as untreated, 0 = no growth, -100 = all killed); settings: 10 µM unless noted
About 83,000 compounds went through this panel and 20% of them were active in at least one assay; those are over-represented in the sample as a whole. Activity calls are given as the source filed them. The calls were made as follows: active = growth percent below 10; inactive = the rest.

Some molecules with known growth results, for comparison:
>  <molecule>
Nc1c(Br)cc2c3c(cccc13)-c1ccccc1-2

>  <system_under_test>
SK-OV-3 ovarian

>  <growth>
87.7% (inactive)

$$$$
>  <molecule>
O=C1C=CC(=O)C2C1C1(Cl)C(Cl)=C(Cl)C2(Cl)C1(Cl)Cl (stereo unspecified)

>  <system_under_test>
SK-OV-3 ovarian

>  <growth>
71% (inactive)

$$$$
>  <molecule>
CC(=O)OC1CCC2(C)C(=CCC3C4CC(CN5CC5)C(=O)C4(C)CCC32)C1 (stereo unspecified)

>  <system_under_test>
SK-OV-3 ovarian

>  <growth>
98.2% (inactive)

$$$$
>  <molecule>
O=[N+]([O-])c1ccccc1N1CCNCC1

>  <system_under_test>
SK-OV-3 ovarian

>  <growth>
96% (inactive)

$$$$
>  <molecule>
CC(=O)O[C@H]1C[C@H](O[C@H]2[C@@H](O)C[C@H](O[C@H]3[C@@H](O)C[C@H](O[C@H]4CC[C@@]5(C)C(CCC6C5C[C@@H](O)[C@]5(C)[C@@H](C7=CC(=O)OC7)CC[C@]65O)C4)O[C@@H]3C)O[C@@H]2C)O[C@H](C)[C@H]1O[C@@H]1O[C@H](CO)[C@@H](O)[C@H](O)[C@H]1O (stereo partly specified)

>  <system_under_test>
SK-OV-3 ovarian

>  <growth>
-97.4% (active)

$$$$
>  <molecule>
CNC(=O)Oc1cccc(OC)c1

>  <system_under_test>
SK-OV-3 ovarian

>  <growth>
118% (inactive)

$$$$

I need growth for every entry listed below, if you could help.
1. CCCC(C)(C)c1ccc2c(c1)OC(C)(C)[C@@H]1CC=C(C)C[C@@H]21
2. O=c1cc[nH]c(=O)o1

89.2% (inactive)
102% (inactive)

###

system: HL-60(TB) leukemia; test: NCI-60 one-dose screen, 48 h (100 = growth as untreated, 0 = no growth, -100 = all killed); conditions: 10 µM unless noted
About 83,000 compounds went through this panel and 20% of them were active in at least one assay; those are over-represented in the sample as a whole.
quantity: growth (%)
Numbers only, in %.

Some molecules with known growth results, for comparison:
>  <molecule>
C=C[C@H]1CCC/C=C/[C@@H]2C[C@H](O)C[C@H]2[C@H](O)/C=C/C(=O)O1

>  <recorded_result>
-0.65

$$$$
>  <molecule>
CCCCn1cc(C(=O)/C(C#N)=C/c2cc3ccccc3nc2Cl)c2cc(OC)ccc21

>  <recorded_result>
88.7

$$$$
>  <molecule>
O=C1N=c2ccccc2=C1c1sc(=Nc2ccccc2)n(Nc2ccccc2)c1O

>  <recorded_result>
97.5

$$$$
>  <molecule>
Cn1nnnc1-c1ccc(N)cc1

>  <recorded_result>
94.4

$$$$
>  <molecule>
O=C(CCCCCCCCC(=O)Nc1cccc(C2=NCCN2)c1)Nc1cccc(C2=NCCN2)c1

>  <recorded_result>
81.9

$$$$
>  <molecule>
Cc1cc(C(=C2C=CC(=Nc3ccccc3)C=C2)c2ccc(Nc3ccccc3)cc2)ccc1N

>  <recorded_result>
5.66

$$$$
>  <molecule>
CC(NC(=O)C(C)Oc1ccc(Cl)cc1Cl)C(=O)O (stereo unspecified)

>  <recorded_result>
105

$$$$
>  <molecule>
Cc1c(Cn2c(C)nc3c(C(=O)O)cc(N4CCOCC4)cc32)cccc1C(F)(F)F

>  <recorded_result>
78.6

$$$$

I need growth for every entry listed below, if you could help.
1. N#C/C(=C\c1ccc(Br)cc1)n1nnc2ccccc21
2. O=[N+]([O-])c1cccc(SSc2cccc([N+](=O)[O-])c2)c1
3. O=C(NC1CCN(Cc2ccccc2)CC1)c1cc(-c2cccnc2)nc2ccc(Cl)cc12
4. Cc1ccc(-n2nnnc2N)c(C)c1

[2.58, 93.6, 73.9, 117]

###

test system: A498 renal; experiment: NCI-60 one-dose screen, 48 h; details: 10 µM unless noted
The panel holds about 83,000 compounds, 20% with a hit somewhere; the sample as a whole holds those more often. The source made the active and inactive calls. How the source made its calls: active means growth percent below 10; inactive means the rest.
Choose the fitting class; nothing outside 1.0 = active, 0.0 = inactive is accepted.

For orientation, consider the following solved cases.
>  <molecule>
CC(=O)O[C@H]1CCC2(C)C(=CCC3C2CCC2(C)/C(=N/OC(=O)c4ccc(N(CCCl)CCCl)cc4)CCC32)C1 (some centres undefined)

>  <cat>
0.0

$$$$
>  <molecule>
CCCCCCCCCCCCOc1ccc(C(=O)Oc2ccc(CSP3(=O)OCC4OC(n5cnc6c(N)ncnc65)C(F)C4OP(=O)(O)OCC4OC(n5ccc(=O)[nH]c5=O)C(F)C4O3)cc2)cc1 (centres undefined)

>  <cat>
0.0

$$$$
>  <molecule>
CCOc1cc(/C=N\Nc2nnc(C)n2N)c(C)cc1N(CCCl)CCCl

>  <cat>
1.0

$$$$
>  <molecule>
COc1cc(NCCCCCN=C(N)N)c2ncccc2c1

>  <cat>
0.0

$$$$
>  <molecule>
CCOc1cc(C=C(C#N)C#N)cc(Br)c1O

>  <cat>
0.0

$$$$

Query: recorded result category for CCC[CH2][Sn]([CH2]CCC)([CH2]CCC)[O]C(=O)c1ccc(Cl)cc1Cl in this test
1.0

Query: recorded result category for C/C1=C/C(=O)O[C@@H]2C[C@@H](CC[C@H](C)/C=C\C=C\CC1)O[C@@](OCCc1ccccc1)([C@@H]1CSC(=O)N1)C2 in this test
1.0

Query: recorded result category for CC(=O)O[C@H]1CC[C@H]2[C@@H]3CC[C@H]4CC=C(C)C[C@]4(C)[C@H]3CC[C@]12C in this test
0.0

Query: recorded result category for NC(=O)OCC(CO)(c1ccccc1)c1ccccc1 in this test
0.0

###

test system: HL-60(TB) leukemia; assay: NCI-60 one-dose screen, 48 h; details: 10 µM unless noted
About 83,000 compounds went through this panel and 20% of them were active in at least one assay; those are over-represented in the sample as a whole. The source made the active and inactive calls. How the source made its calls: active means growth percent below 10; inactive means the rest.
Choose the fitting class; nothing outside label 1 (active), label 0 (inactive) is accepted.

For orientation, consider the following solved cases.
>  <molecule>
C=CC(=O)N1CN(C(=O)C=C)CN(C(=O)C=C)C1

>  <cat>
label 0

$$$$
>  <molecule>
Cc1cc(O)c(C2=NN(c3ccc(S(N)(=O)=O)cc3)C(c3ccccc3Cl)C2)cc1Cl (stereo unspecified)

>  <cat>
label 1

$$$$
>  <molecule>
CC(C)C1CCCCC1O (stereo unspecified)

>  <cat>
label 0

$$$$
>  <molecule>
c1ccc(CNCCNCc2ccccc2)cc1

>  <cat>
label 0

$$$$
>  <molecule>
NCCCCCCNc1cc(-c2cccc(OC(F)(F)F)c2)nc2ccc(N3CCCC3)cc12

>  <cat>
label 1

$$$$
>  <molecule>
COc1ccc(C2CC(c3ccc4ccccc4c3)=NN2c2nc(O)c(C3=c4cc(OC)ccc4=NC3=O)s2)cc1 (stereo unspecified)

>  <cat>
label 0

$$$$

Query: recorded result category for Nc1nc(CSc2n[nH]c(N)n2)nc(Nc2ccccc2)n1 in this test
label 0

Query: recorded result category for CCOC(=O)C(COS(C)(=O)=O)(COS(C)(=O)=O)C(=O)OCC in this test
label 0

Query: recorded result category for Cc1cc(C)c(O)c(CNCCCNCc2cc(C)cc(C)c2O)c1 in this test
label 0

Query: recorded result category for NC1=C(Cl)C(=O)c2ccc(S(N)(=O)=O)cc2C1=O in this test
label 1

Query: recorded result category for C[C@]12CC[C@@H]3c4ccc(OS(=O)(=O)O)cc4CC[C@H]3[C@@H]1CC[C@@H]2NS(=O)(=O)c1ccc(-c2ccccc2)cc1 in this test
label 0

Query: recorded result category for ClCCN(CCCl)c1nc(Cl)c(C2CC(c3ccc(Cl)cc3)=NN2c2cc(Cl)cc(Cl)c2)s1 (stereo unspecified) in this test
label 0

Query: recorded result category for COc1cc2nnc3c4cccnc4[nH]c3c2cc1OC in this test
label 1

Query: recorded result category for Oc1c(CN2CCCC2)cc(COCc2ccccc2)c2cccnc12 in this test
label 0

Query: recorded result category for CC(C)N(CCNc1nc(C(Cl)(Cl)Cl)nc2cc(Cl)ccc12)C(C)C in this test
label 1

Query: recorded result category for C(CCCC1=NCCO1)CCCC1=NCCO1 in this test
label 0

Query: recorded result category for CC(=O)c1cc2c(N)c(C(=O)Nc3cccc4ccccc34)sc2nc1C in this test
label 1

Query: recorded result category for COc1cccc(C(=O)NNc2nc(Cl)nc(N3CCN(C(c4ccccc4)c4ccccc4)CC3)n2)c1 in this test
label 1

Query: recorded result category for CC(=O)Nc1ccc(S(=O)(=O)N2C(=O)CCC2C(=O)Nc2ccc(Br)cc2)cc1 (stereo unspecified) in this test
label 0

Query: recorded result category for Fc1ccc2[nH]cc(-c3nc(-c4c[nH]c5c(Cl)nccc45)cs3)c2c1 in this test
label 0

Query: recorded result category for O=C1Nc2ccccc2/C1=C/c1cccn1CCCCCn1c2ccccc2c(=O)c2ccccc21 in this test
label 0

Query: recorded result category for Cc1c(CC(=O)Nc2ccccc2)nnn1-c1ccccc1 in this test
label 0

Query: recorded result category for CCN1C(=O)N(CC)C2C1NN=c1s/c(=C\c3ccccc3Br)c(=O)n12 (stereo unspecified) in this test
label 1

Source listed as PubChem BioAssay (NCI).
